System: T1, human pancreatic α-amylase (human, UniProt P04746)
T1 sequence: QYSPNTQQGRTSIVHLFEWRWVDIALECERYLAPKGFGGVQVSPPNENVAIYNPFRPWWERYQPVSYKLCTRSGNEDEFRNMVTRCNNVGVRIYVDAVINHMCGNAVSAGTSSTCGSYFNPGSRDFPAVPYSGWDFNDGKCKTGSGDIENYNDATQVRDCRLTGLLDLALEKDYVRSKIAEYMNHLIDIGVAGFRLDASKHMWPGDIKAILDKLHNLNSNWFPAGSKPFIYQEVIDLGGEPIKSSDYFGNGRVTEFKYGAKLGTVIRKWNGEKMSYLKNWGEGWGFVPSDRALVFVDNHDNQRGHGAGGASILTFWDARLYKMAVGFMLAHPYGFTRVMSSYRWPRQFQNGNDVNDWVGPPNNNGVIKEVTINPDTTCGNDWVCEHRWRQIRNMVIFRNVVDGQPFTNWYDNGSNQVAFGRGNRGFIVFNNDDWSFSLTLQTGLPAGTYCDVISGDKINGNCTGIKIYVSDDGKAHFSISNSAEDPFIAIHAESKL
Procedure summary: cell-based or functional assay
Experimental endpoint: Amylase inhibitory activity (U/mg)

Binder	Result units	Result
0.53 AI (other) SGPWMCYPGQAFQVPALPGCRPLLKLQCNGSQVPEAVLRDCCQQLADISEWPRCGALYSMLDSMYKEHGVSEGQAGTGAFPSCRREVVKLTAASITAVCRLPIVVDASGDGAYVCKDVAAYPDA	U/mg	3940

(I) 0.28 AI (other) SGPWSWCNPATGYKVSALTGCRAMVKLQCVGSQVPEAVLRDCCQQLADINNEWCRCGDLSSMLRAVTQELGVREGKEVLPGCRKEVMKLTAASVPEVCKVPIPNPSGDRAGVCYGDWCAYPDV
(II) 0.26 AIb (other) SGPWMCYPGYAFKVPALPGCRPVLKLQCNGSQVPEAVLRDCCQQLADISEWCRCGALYSMLDSMYKEHGVQEGQAGTGAFPSCRREVVKLTAASITAVCKLPIVIDASGDGAYVCKGVAAYP
### Prompt Compare reported Amylase inhibitory activity (U/mg) values for I and II . Which is lower? // output: label of the selected item
### Response I
(I: 840 U/mg, II: 20500 U/mg)

FYI, the data here is from patent US5789380A.
